I'd be grateful if you could share measured Kd for these entries.
Target: Ba/F3 ETV5-FGFR4 (Homo sapiens, UniProt P22455)
Construct: host or cells: Ba/F3; the other entry of the earlier key: ETV5 (P41161, ETS translocation variant 5)
Sequence (P22455 467-755 limits assumed): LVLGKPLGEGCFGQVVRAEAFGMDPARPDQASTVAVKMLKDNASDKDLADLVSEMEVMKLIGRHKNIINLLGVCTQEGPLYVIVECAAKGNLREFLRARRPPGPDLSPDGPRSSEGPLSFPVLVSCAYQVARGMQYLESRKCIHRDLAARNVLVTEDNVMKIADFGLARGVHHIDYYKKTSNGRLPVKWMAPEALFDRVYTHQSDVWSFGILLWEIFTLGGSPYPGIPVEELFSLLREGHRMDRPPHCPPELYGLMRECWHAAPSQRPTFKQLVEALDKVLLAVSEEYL
Test: Ba/F3 cell viability assay (CellTiter-Glo 2.0)
Format: cell-based
Conditions: Ba/F3 cell data, ETV5-FGFR4 fusion, 48 hours
Excerpt: Experimental Purpose: Recombinant kinase fusions are transduced into parental Ba/F3, which becomes dependent upon this constitutive kinase activity for IL3-independent survival. Inhibition of kinase activity leads to cell death, which is monitored using CellTiter-Glo® 2.0 (Promega) which measures intracellular ATP concentration that in turn serves as a marker for viability. BCR-FGFR1 Ba/F3, BCR-FGFR2 and FGFR3-BAIAP2L1 Ba/F3 were obtained from Advanced Cellular Dynamics (Seattle, WA). […]

# query: Kd | item C=CC(=O)N1CCC2(CC1)CC(n1ncc(-c3cc(O[C@@H](CO)c4ccccn4)c4c(Cl)cnn4c3)c1C)C2 [Example 5] | system: Ba/F3 ETV5-FGFR4 (Homo sapiens, UniProt P22455)
≥ 1000 nM

What is its Kd for Ba/F3 ETV5-FGFR4 (Homo sapiens, UniProt P22455)? Entry: C=CC(=O)N1CCC2(CC1)CC(n1ncc(-c3cc(O[C@@H](CO)c4ccc(F)cn4)c4c(C#N)cnn4c3)c1C)C2 [Example 10]
≥ 1000 nM

Please state recorded Kd (tested on Ba/F3 ETV5-FGFR4 (Homo sapiens, UniProt P22455)) of C=CC(=O)N1CC(F)(C(=O)N2CCC(n3nnc(-c4cc(O[C@H](CO)c5ccccn5)c5c(C#N)cnn5c4)c3C)CC2)C1 (single isomer, unassigned) [Example 20]
≥ 1000 nM

Notebook: pull reported Kd for Ba/F3 ETV5-FGFR4 (Homo sapiens, UniProt P22455), entry C=CC(=O)N1CCC(n2ncc(-c3cc(O[C@@H](CO)c4ccc(F)cn4)c4c(C#N)cnn4c3)c2C)CC1 [Example 2]
≥ 1000 nM

For the record CCC(=O)N1CCC2(CC1)CC(n1cc(-c3cc(O[C@H](CO)c4ccc(F)cn4)c4c(C#N)cnn4c3)cn1)C2 [Example 28] , what value of Kd is listed for Ba/F3 ETV5-FGFR4 (Homo sapiens, UniProt P22455)?
100 to 250 nM

Ba/F3 ETV5-FGFR4 (Homo sapiens, UniProt P22455) / Kd / C=CC(=O)N1CCC2(CC1)CC(n1ncc(-c3cc(OC(CO)c4ccn(C)n4)c4c(C#N)cnn4c3)c1C)C2 (stereo not drawn) [Example 14] : value?
250 to 1000 nM

Look up Kd with Ba/F3 ETV5-FGFR4 (Homo sapiens, UniProt P22455) for this molecule: C=CC(=O)N1CCC2(CC1)CC(n1nnc(-c3cc(O[C@H](C)c4ccccn4)c4c(C#N)cnn4c3)c1C)C2 [Example 3]
100 to 250 nM

Query Kd on Ba/F3 ETV5-FGFR4 (Homo sapiens, UniProt P22455) for C=CC(=O)N1CCC2(CC1)CC(n1ncc(-c3cc(O[C@@H](CO)c4ccccn4)c4c(C#N)cnn4c3)c1C)C2 [Example 7]
250 to 1000 nM

Param readout= Kd; system= Ba/F3 ETV5-FGFR4 (Homo sapiens, UniProt P22455); entry= C=CC(=O)N1CCC2(CC1)CC(n1nnc(-c3cc(O[C@H](C)c4ccccn4)c4c(Cl)cnn4c3)c1C)C2 [Example 4] ; returns value.
250 to 1000 nM

// map C=CC(=O)N1CCC2(CC1)CC(n1ncc(-c3cc(O[C@H](CO)c4ccccn4)c4c(C#N)cnn4c3)c1C)C2 [Example 8] to recorded Kd (system: Ba/F3 ETV5-FGFR4 (Homo sapiens, UniProt P22455))
250 to 1000 nM

Lab note: need Kd for C=CC(=O)N1CCC2(CC1)CC(n1nnc(-c3cc(O[C@H](CO)c4ccc(F)cn4)c4c(C#N)cnn4c3)c1C)C2 [Example 13] on Ba/F3 ETV5-FGFR4 (Homo sapiens, UniProt P22455), anyone have it?
250 to 1000 nM

Missing value: Kd, Ba/F3 ETV5-FGFR4 (Homo sapiens, UniProt P22455), entry C=CC(=O)N1CCC(n2ncc(-c3cc(O[C@H](CO)c4ccc(F)cn4)c4c(C#N)cnn4c3)c2C)CC1 [Example 1] . Fill in?
250 to 1000 nM

Enter reported Kd observed with Ba/F3 ETV5-FGFR4 (Homo sapiens, UniProt P22455) for C=CC(=O)N1CCC2(CC1)CC(n1nnc(-c3cc(O[C@@H](CO)c4ccc(F)cn4)c4c(C#N)cnn4c3)c1C)C2 [Example 12]
≥ 1000 nM

Missing value: Kd, Ba/F3 ETV5-FGFR4 (Homo sapiens, UniProt P22455), entry C=CC(=O)N1CC(C(=O)N2CCC(n3nnc(-c4cc(O[C@H](CO)c5ccccn5)c5c(C#N)cnn5c4)c3C)CC2)C1 (single isomer, unassigned) [Example 18] . Fill in?
≥ 1000 nM

GET /values?readout=Kd&system=Ba/F3 ETV5-FGFR4 (Homo sapiens, UniProt P22455)&item= C=CC(=O)N1CC(OC)(C(=O)N2CCC(n3nnc(-c4cc(O[C@H](CO)c5ccccn5)c5c(C#N)cnn5c4)c3C)CC2)C1 [Example 22]
≥ 1000 nM

GET /values?readout=Kd&system=Ba/F3 ETV5-FGFR4 (Homo sapiens, UniProt P22455)&item= C=CC(=O)N1CCC2(CC1)CC(n1ncc(-c3cc(O[C@H](CO)c4ccc(F)cn4)c4c(C#N)cnn4c3)c1C)C2 [Example 9]
250 to 1000 nM

Form field: Kd recorded for C=CC(=O)N1CC(OC)(C(=O)N2CCC(n3nnc(-c4cc(O[C@@H](CO)c5ccccn5)c5c(C#N)cnn5c4)c3C)CC2)C1 [Example 21] with Ba/F3 ETV5-FGFR4 (Homo sapiens, UniProt P22455) (enter value)
≥ 1000 nM

State its Kd on Ba/F3 ETV5-FGFR4 (Homo sapiens, UniProt P22455): C=CC(=O)N1CCC2(CC1)CC(n1ncc(-c3cc(OC(CO)c4cncc5ccccc45)c4c(C#N)cnn4c3)c1C)C2 (stereo not drawn) [Example 15]
250 to 1000 nM

Under Ba/F3 ETV5-FGFR4 (Homo sapiens, UniProt P22455): Kd value of COC1(C(=O)N2CCC(n3nnc(-c4cc(OC(CO)c5ccccn5)c5c(C#N)cnn5c4)c3C)CC2)CN(C(=O)/C=C/CN(C)C)C1 (stereo not drawn) [Example 23] ?
≥ 1000 nM

What Kd appears in the records for this molecule with Ba/F3 ETV5-FGFR4 (Homo sapiens, UniProt P22455)? C=CC(=O)N1CCC2(CC1)CC(n1ncc(-c3cc(OC(CO)c4ccnn4C)c4c(C#N)cnn4c3)c1C)C2 (stereo not drawn) [Example 11]
≥ 1000 nM

Record lookup: for Ba/F3 ETV5-FGFR4 (Homo sapiens, UniProt P22455), what Kd belongs to C=CC(=O)N1CCC2(CC1)CC(n1ncc(-c3cc(OC(CO)c4ccccn4)c4c(Cl)cnn4c3)c1C)C2 (single isomer, unassigned) [Example 6] ?
250 to 1000 nM

---

target: Ba/F3 FGFR3-BAIAP2L1 (Homo sapiens, UniProt P22607); construct: BAIAP2L1 (fusion partner, Q9UHR4 if human); host or cells: Ba/F3; the other entry of the earlier key: BAIAP2L1 (Q9UHR4, BAR/IMD domain-containing adapter protein 2-like 1); experiment: Ba/F3 cell viability assay (CellTiter-Glo 2.0); assay type: cell-based; conditions: Ba/F3 cell data, FGFR3-BAIAP2L1 fusion, 48 hours
Sequence (P22607 397-758 limits assumed): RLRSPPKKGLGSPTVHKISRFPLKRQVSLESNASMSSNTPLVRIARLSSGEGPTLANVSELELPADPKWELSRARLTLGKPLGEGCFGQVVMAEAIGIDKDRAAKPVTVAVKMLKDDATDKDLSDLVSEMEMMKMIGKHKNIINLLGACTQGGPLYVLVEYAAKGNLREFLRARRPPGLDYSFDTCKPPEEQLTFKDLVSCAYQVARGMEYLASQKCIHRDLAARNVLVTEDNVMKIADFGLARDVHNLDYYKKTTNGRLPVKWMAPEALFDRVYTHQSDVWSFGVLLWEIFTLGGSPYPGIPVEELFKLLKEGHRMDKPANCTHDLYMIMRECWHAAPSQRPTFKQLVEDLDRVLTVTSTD
Please provide measured Kd for the entries that follow.

What Kd value was documented for this compound, C=CC(=O)N1CCC(n2ncc(-c3cc(O[C@@H](CO)c4ccc(F)cn4)c4c(C#N)cnn4c3)c2C)CC1 [Example 2] ?
250 to 1000 nM

Fill blank: measured Kd of the compound C=CC(=O)N1CCC2(CC1)CC(n1ncc(-c3cc(OC(CO)c4ccccn4)c4c(Cl)cnn4c3)c1C)C2 (single isomer, unassigned) [Example 6] is ____.
0.1 to 100 nM

Any idea what Kd was measured for C=CC(=O)N1CC(OC)(C(=O)N2CCC(n3nnc(-c4cc(O[C@@H](CO)c5ccccn5)c5c(C#N)cnn5c4)c3C)CC2)C1 [Example 21] ?
≥ 1000 nM

---

biological target: FGFR1 (Homo sapiens, UniProt P11362); construct: made in house; host or cells: E. coli (BL21-derived) infected with T7 phage; assay: Kinase binding assay (Kd), kinase-tagged T7 phage, affinity beads, qPCR; settings: in vitro binding assay, 11-point 3-fold dilution series
Sequence (P11362 22-822): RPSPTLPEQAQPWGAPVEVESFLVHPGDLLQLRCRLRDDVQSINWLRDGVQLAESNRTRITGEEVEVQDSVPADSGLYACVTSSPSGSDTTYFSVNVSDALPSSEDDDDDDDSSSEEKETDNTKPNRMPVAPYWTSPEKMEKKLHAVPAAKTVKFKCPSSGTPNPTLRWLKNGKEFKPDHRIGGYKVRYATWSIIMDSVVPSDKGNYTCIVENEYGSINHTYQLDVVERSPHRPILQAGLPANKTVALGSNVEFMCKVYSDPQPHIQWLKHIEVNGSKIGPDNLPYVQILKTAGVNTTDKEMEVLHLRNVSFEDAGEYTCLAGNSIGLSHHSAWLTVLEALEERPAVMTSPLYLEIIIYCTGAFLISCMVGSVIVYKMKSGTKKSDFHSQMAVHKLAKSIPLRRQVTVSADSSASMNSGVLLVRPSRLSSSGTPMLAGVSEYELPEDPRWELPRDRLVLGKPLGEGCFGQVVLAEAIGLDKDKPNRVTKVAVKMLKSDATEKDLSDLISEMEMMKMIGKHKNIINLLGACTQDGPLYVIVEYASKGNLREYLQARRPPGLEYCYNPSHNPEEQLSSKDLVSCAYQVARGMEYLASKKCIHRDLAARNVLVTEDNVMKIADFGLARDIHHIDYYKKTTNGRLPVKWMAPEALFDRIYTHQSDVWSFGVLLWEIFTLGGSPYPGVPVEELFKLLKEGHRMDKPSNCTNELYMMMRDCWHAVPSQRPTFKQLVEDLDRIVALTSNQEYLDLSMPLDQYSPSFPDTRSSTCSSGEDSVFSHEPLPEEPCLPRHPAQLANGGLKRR
readout.label: Kd

Need Kd, item CCC(=O)N1CC(C(=O)N2CCC(n3nnc(-c4cc(OC(CO)c5ccccn5)c5c(C#N)cnn5c4)c3C)CC2)C1 (centres unmarked)
100 to 250 nM

Which Kd value belongs to C#CC(=O)N1CC(OC)(C(=O)N2CCC(n3nnc(-c4cc(OC(CO)c5ccccn5)c5c(C#N)cnn5c4)c3C)CC2)C1 (centres unmarked) ?
0.1 to 100 nM

Bench note: what Kd did C=CC(=O)N1CCC2(CC1)CC(n1ncc(-c3cc(O[C@@H](CO)c4ccc(F)cn4)c4c(C#N)cnn4c3)c1C)C2 show?
250 to 1000 nM

For the compound C=CC(=O)N1CCC(n2ncc(-c3cc(O[C@H](CO)c4ccc(F)cn4)c4c(C#N)cnn4c3)c2C)CC1 , what Kd is on record?
100 to 250 nM

Reported Kd for C=CC(=O)N1CCC2(CC1)CC(n1nnc(-c3cc(O[C@H](C)c4ccccn4)c4c(C#N)cnn4c3)c1C)C2 : what is it?
0.1 to 100 nM

What measured Kd goes with C=CC(=O)N1CCC2(CC1)CC(n1ncc(-c3cc(O[C@@H](CO)c4ccccn4)c4c(Cl)cnn4c3)c1C)C2 ?
≥ 1000 nM

Using the record for C=CC(=O)N1CC(OC)(C(=O)N2CCC(n3nnc(-c4cc(O[C@H](CO)c5ccccn5)c5c(C#N)cnn5c4)c3C)CC2)C1 , report its Kd.
0.1 to 100 nM

Kd lookup needed for C=CC(=O)N1CCC2(CC1)CC(n1nnc(-c3cc(O[C@H](C)c4ccccn4)c4c(Cl)cnn4c3)c1C)C2 , thanks.
0.1 to 100 nM

Which Kd is reported for this compound? C=CC(=O)N1CCC2(CC1)CC(n1cc(-c3cc(O[C@@H](CO)c4ccc(F)cn4)c4c(C#N)cnn4c3)cn1)C2
100 to 250 nM

Tell me the measured Kd of COC1(C(=O)N2CCC(n3nnc(-c4cc(OC(CO)c5ccccn5)c5c(C#N)cnn5c4)c3C)CC2)CN(C(=O)/C=C/CN(C)C)C1 (centres unmarked) , please.
0.1 to 100 nM

Can you look up the measured Kd of C=CC(=O)N1CCC2(CC1)CC(n1ncc(-c3cc(OC(CO)c4ccn(C)n4)c4c(C#N)cnn4c3)c1C)C2 (centres unmarked) for me?
100 to 250 nM

Need Kd of CCC(=O)N1CCC2(CC1)CC(n1cc(-c3cc(O[C@@H](CO)c4ccc(F)cn4)c4c(C#N)cnn4c3)cn1)C2 , thanks.
100 to 250 nM

Reported Kd for C=CC(=O)N1CC(C(=O)N2CCC(n3nnc(-c4cc(O[C@@H](CO)c5ccccn5)c5c(C#N)cnn5c4)c3C)CC2)C1 : what is it?
≥ 1000 nM

Request the reported Kd associated with CCC(=O)N1CCC2(CC1)CC(n1cc(-c3cc(O[C@H](CO)c4ccc(F)cn4)c4c(C#N)cnn4c3)cn1)C2
0.1 to 100 nM

# Kd lookup, item C=CC(=O)N1CCC2(CC1)CC(n1ncc(-c3cc(O[C@@H](CO)c4ccccn4)c4c(C#N)cnn4c3)c1C)C2
250 to 1000 nM

Item under review: C=CC(=O)N1CC(C(=O)N2CCC(n3nnc(-c4cc(O[C@H](CO)c5ccccn5)c5c(C#N)cnn5c4)c3C)CC2)C1 (single isomer, unassigned) . Reported Kd?
0.1 to 100 nM

State the recorded Kd for this entry: C=CC(=O)N1CCC2(CC1)CC(n1ncc(-c3cc(OC(CO)c4cncc5ccccc45)c4c(C#N)cnn4c3)c1C)C2 (centres unmarked)
0.1 to 100 nM

Return reported Kd; argument: C=CC(=O)N1CCC2(CC1)CC(n1nnc(-c3cc(O[C@H](CO)c4ccc(F)cn4)c4c(C#N)cnn4c3)c1C)C2
0.1 to 100 nM

Which value of Kd has been reported for C=CC(=O)N1CCC2(CC1)CC(n1ncc(-c3cc(OC(CO)c4ccccn4)c4c(Cl)cnn4c3)c1C)C2 (single isomer, unassigned) in the records?
100 to 250 nM

Reported Kd for C=CC(=O)N1CC(F)(C(=O)N2CCC(n3nnc(-c4cc(O[C@@H](CO)c5ccccn5)c5c(C#N)cnn5c4)c3C)CC2)C1 (single isomer, unassigned) : what is it?
≥ 1000 nM
